Known TGI of a selection of compounds
tested on: IGROV1 ovarian; experiment: NCI tumour cell line growth inhibition, 48 h
endpointName: TGI

* CCOC(=O)c1cnc2n(c1=O)[C@H]1CCCC[C@@H]1N2 | > 100 µM
* CCOC(=O)/C=C(/C(=O)OCC)n1cc(C)c(=O)n(Cc2cn(CCCCOC(C)=O)nn2)c1=O | 29.6 µM
* CCCCC[C@H]1C/C=C2/C(=O)C=C[C@@H]2C/C=C\CCCC(=O)O1 | 1.43 µM
* CC(=O)N1CCOC12N=NC(C)(C)O2 (stereo unspecified) | > 100 µM
* CNC(=O)NCCCCC(NC(C)=O)C(=O)NCc1ccccc1 (stereo unspecified) | > 100 µM
* CC(C)C(Br)C(=O)NCC(=O)O (stereo unspecified) | > 100 µM
* CCOC(=O)C(Cc1cc(OC)c(CC(C(=O)OCC)C(=O)OCC)cc1OC)C(=O)OCC | > 100 µM
* C/C(=N/NC(N)=S)C(CN1CCOCC1)C(C1=C(O)c2ccccc2OC1)c1ccccc1 (stereo unspecified) | > 100 µM
* COC(=O)c1ccc(C)cc1C1CN=NC12Cc1cccc(C)c1C2=O (stereo unspecified) | > 100 µM
* COc1ccc(-c2cn3ccnc3c(-c3ccc(Cl)cc3)n2)cc1 | > 100 µM
* Nc1ccnc2c1ncn2[C@H]1C[C@H](O)[C@@H](CO)O1 | > 100 µM

----------
Known TGI of a selection of compounds
tested on: SF-268 CNS; assay: NCI tumour cell line growth inhibition, 48 h
endpointName: TGI

* COc1ccc(C(=O)c2ccccc2)c(O)c1 | > 100 µM
* CCOC(=O)/C=C/c1ccc([N+](=O)[O-])o1 | 40.5 µM
* C[C@]12CC[C@H](OC(=O)Nc3ccccc3)CC1=CC[C@@H]1C2CC[C@]2(C)/C(=N/OC(=O)Nc3ccccc3)CCC12 (some centres undefined) | > 100 µM
* C=C1C(=O)O[C@@H]2C[C@@H](C)[C@@H]3C=CC(=O)[C@@]3(C)[C@@H](OC(=O)CCCC(=O)O[C@H]3[C@@H]4C(=C)C(=O)O[C@@H]4C[C@@H](C)[C@@H]4C=CC(=O)[C@]43C)[C@H]12 | 0.23 µM
* CCNc1ccc2c(c1)C(=O)N(OS(C)(=O)=O)C2=O | > 100 µM
* CC1=NN(c2ccccc2)C(=O)/C1=C\c1c(C)[nH]n(-c2ccccc2)c1=O | > 100 µM
* O=C(Nc1ccccc1)N1C(c2ccccc2)=N[C@@H](c2ccccc2)[C@@H]1c1ccccc1 | 49.2 µM
* O=C(O)CCN1C(=S)CSC1=S | > 100 µM
* C=C(CN1CCc2ccccc2C1)c1ccc(CCCC(=O)Nc2ccccc2N)cc1 | > 100 µM

----------
tested on: DLD-1 colon; test: NCI tumour cell line growth inhibition, 48 h
Known TGI of a selection of compounds
endpointName: TGI

• Cc1ccc(N2Cc3c(ccc4ccccc34)OP2(=S)N2CCCC2)cc1 (stereo not given) = > 100 µM
• COC(=O)c1c(CC(=O)OC(C)C)cc2n(c1=O)Cc1c-2nc2ccccc2c1OC = > 100 µM
• O=C(O)C1CC2C=CCC(C2)C1 (stereo not given) = > 100 µM
• CCNC1CC(n2cc(C)c(=O)[nH]c2=O)OC1CO (stereo not given) = > 100 µM
• COc1c2c(c(O)c3c4c(c(C)cc13)C1OC3(C(OC)OC5CC(C)(O)C(OC6CC(C)(O)C(O)C(C)O6)C(C)O5)OC1C(OC)(O4)C31CO1)C(=O)C(O)CC2OC1CC(C)(O)C(OC(C)=O)C(C)O1 (stereo not given) = 4.17 µM
• COc1ccc(OCC(=O)O)c2c1CCC(C)C2=O (stereo not given) = > 100 µM
• CC(NC1CCCC[C@@H]1O)c1ccccc1 (stereo not given in full) = > 100 µM
• O=C(Nc1ccccc1)N1C(c2ccccc2)=N[C@@H](c2ccccc2)[C@@H]1c1ccccc1 = 35.6 µM
• O=C1C=C(NCCc2ccccc2)c2ccccc2C1=O = 21.9 µM
• O=Cn1c2ccccc2c2ccccc21 = > 100 µM

----------
tested on: MALME-3M melanoma; assay: NCI tumour cell line growth inhibition, 48 h
endpointName: GI50

• C[C@]12CCC3c4ccc(O)cc4CCC3C1CC[C@@H]2NC(=O)/C=C/c1ccc(O)c(O)c1 (some centres not stated) = 25.1 µM
• C/C(=N\NC(=S)N1CCCC1)c1ccccn1 = < 0.0349 µM
• COC1CCC(OC)C(c2nc3sccn3c2/C=N/N=C(N)N)C1 (configuration not stated) = 1.7 µM
• COc1c(OC2OC(C)C(O)C(O)C2O)c(OC)c2oc(-c3ccc(O)cc3)cc(=O)c2c1O (configuration not stated) = 34.2 µM
• Cc1cc(C)c(-c2c(O)c(Br)c(-c3c(C)cc(C)c(Br)c3C)c(O)c2Br)c(C)c1Br = 1.65 µM
• O=C(NCc1cn(Cc2cccc(Oc3ccccc3)c2)nn1)c1cccnc1NCc1ccc(Cl)cc1 = 5.69 µM
• N#C/C(=C/C=C/c1cccc(Cl)c1)S(=O)c1ccccc1 (configuration not stated) = 1.05 µM
• CCN(CC)c1ccc(/C=N/N=C(N)N)cc1 = 4.45 µM
• COc1ccc2c(CN3CCCC[C@H]3O)cc3cc4c(cc3c2c1)OCO4 = 0.218 µM
• N.N.N.N.O=S([O-])[O-].[Co+3].[N-]=[N+]=[N-] = > 100 µM
• CSC(=S)NCc1cn(C)c2ccccc12 = 24.6 µM
• CSCc1ncc(-c2ccc(C(F)(F)F)cc2)c(NC2CCCCCC2)n1 = > 10 µM

----------
test system: CAKI-1 renal; experiment: NCI tumour cell line growth inhibition, 48 h; in the data active = GI50 below about 0.43 µM; inactive = the rest
Classes used: active, inactive

* CCOC(=O)/C=C/c1ccc([N+](=O)[O-])o1 | inactive
* CC(C)(O)c1cc(Nc2cc(Oc3cn(C4CC4)nc3C3CCOCC3)ccn2)ccn1 | inactive
* CC(C)(C)OC(=O)NCCCCCCCCCCCCn1c2c(c3ccccc3c1=O)C(=O)c1ccccc1-2 | inactive
* COc1ccc(N=c2nc3sc4cc(Cl)ccc4n3c(N)c2C#N)cc1 | inactive
* N#C/C(=C/C=C/c1cccc(Cl)c1)S(=O)c1ccccc1 (stereo not given) | active

----------
system: SW-620 colon; assay: NCI tumour cell line growth inhibition, 48 h
Known GI50 of a selection of molecules
endpointName: GI50

- CCCCC[C@H]1C/C=C2/C(=O)C=C[C@@H]2C/C=C\CCCC(=O)O1: 0.177 µM
- CCOC(=O)/C=C/c1ccc([N+](=O)[O-])o1: 2.38 µM
- COC(=O)N[C@@H](C)CNc1nccc(-c2cn(C(C)C)nc2-c2cc(Cl)cc(NS(C)(=O)=O)c2F)n1: 12.1 µM
- COc1c(OC2OC(C)C(O)C(O)C2O)c(OC)c2oc(-c3ccc(O)cc3)cc(=O)c2c1O (centres undefined): 35.7 µM
- CCOC(=O)c1sc(NC(=O)COc2ccc(/C=C3\CCc4cc(OC)ccc4C3=O)cc2)nc1C: 11.4 µM
- O=C(NCc1cn(Cc2cccc(Oc3ccccc3)c2)nn1)c1cccnc1NCc1ccc(Cl)cc1: 4.04 µM
- C[C@]12CCC3c4ccc(O)cc4CCC3C1CC[C@@H]2NC(=O)/C=C/c1ccc(O)c(O)c1 (some centres undefined): 15.9 µM
- COc1ccc(CN2c3ccccc3Sc3ccccc32)cc1O: 0.504 µM
- CCCCS(=O)(=O)c1cc(Nc2ccc(O)c3c2C(=O)c2ccccc2C3=O)ccc1C: > 100 µM

----------
system: KM12 colon; assay: NCI tumour cell line growth inhibition, 48 h
Known TGI of a selection of compounds
endpointName: TGI

• COc1cc(N)c(Cl)cc1C(=O)N[C@@H]1CCN(CCCOc2ccc(F)cc2)C[C@@H]1OC = > 100 µM
• O=C(CC1(O)CCCCC1)OC1CCCC1 = > 100 µM
• O=C1C=C(NCCc2ccccc2)c2ccccc2C1=O = 8.72 µM
• C/C(CC(O)(C(F)(F)F)C(F)(F)F)=N\O = > 10 µM
• C=C(c1ccccc1)c1cc2c(=O)[nH]ccc2n1C = > 100 µM
• O=C(NCCCN1CCN(CCCNC(=O)Nc2cc(Cl)ccc2Cl)CC1)Nc1cc(Cl)ccc1Cl = > 100 µM

----------
system: CCRF-CEM leukemia; assay: NCI tumour cell line growth inhibition, 48 h
endpointName: log10(TGI) (log10 of the value in µM)

- O=C1CC(c2cccc([N+](=O)[O-])c2)C2(C(=O)NC(=S)NC2=O)C(c2cccc([N+](=O)[O-])c2)C1 (centres undefined): 1.99
- S=C(Nc1ccc(-c2nc3ccccc3s2)cc1)Nc1ccc(-c2nc3ccccc3s2)cc1: 1.85
- O=C(Nc1ccccc1)N1C(c2ccccc2)=N[C@@H](c2ccccc2)[C@@H]1c1ccccc1: 1.78
- Cc1cc(C)c(S(=O)(=O)N(CCCCCN)OCCCN)c(C)c1: 1.66
- COC(=O)c1ccc(C)cc1C1CN=NC12Cc1cccc(C)c1C2=O (centres undefined): 1.97
- O=C1c2ccccc2-c2c1c1ccccc1c(=O)n2CCNCCNCCNCCNCCn1c2c(c3ccccc3c1=O)C(=O)c1ccccc1-2: 0.42
